# Target Of Assay: UniProt P12821
# Sequence (P12821 30-1306, species assumed): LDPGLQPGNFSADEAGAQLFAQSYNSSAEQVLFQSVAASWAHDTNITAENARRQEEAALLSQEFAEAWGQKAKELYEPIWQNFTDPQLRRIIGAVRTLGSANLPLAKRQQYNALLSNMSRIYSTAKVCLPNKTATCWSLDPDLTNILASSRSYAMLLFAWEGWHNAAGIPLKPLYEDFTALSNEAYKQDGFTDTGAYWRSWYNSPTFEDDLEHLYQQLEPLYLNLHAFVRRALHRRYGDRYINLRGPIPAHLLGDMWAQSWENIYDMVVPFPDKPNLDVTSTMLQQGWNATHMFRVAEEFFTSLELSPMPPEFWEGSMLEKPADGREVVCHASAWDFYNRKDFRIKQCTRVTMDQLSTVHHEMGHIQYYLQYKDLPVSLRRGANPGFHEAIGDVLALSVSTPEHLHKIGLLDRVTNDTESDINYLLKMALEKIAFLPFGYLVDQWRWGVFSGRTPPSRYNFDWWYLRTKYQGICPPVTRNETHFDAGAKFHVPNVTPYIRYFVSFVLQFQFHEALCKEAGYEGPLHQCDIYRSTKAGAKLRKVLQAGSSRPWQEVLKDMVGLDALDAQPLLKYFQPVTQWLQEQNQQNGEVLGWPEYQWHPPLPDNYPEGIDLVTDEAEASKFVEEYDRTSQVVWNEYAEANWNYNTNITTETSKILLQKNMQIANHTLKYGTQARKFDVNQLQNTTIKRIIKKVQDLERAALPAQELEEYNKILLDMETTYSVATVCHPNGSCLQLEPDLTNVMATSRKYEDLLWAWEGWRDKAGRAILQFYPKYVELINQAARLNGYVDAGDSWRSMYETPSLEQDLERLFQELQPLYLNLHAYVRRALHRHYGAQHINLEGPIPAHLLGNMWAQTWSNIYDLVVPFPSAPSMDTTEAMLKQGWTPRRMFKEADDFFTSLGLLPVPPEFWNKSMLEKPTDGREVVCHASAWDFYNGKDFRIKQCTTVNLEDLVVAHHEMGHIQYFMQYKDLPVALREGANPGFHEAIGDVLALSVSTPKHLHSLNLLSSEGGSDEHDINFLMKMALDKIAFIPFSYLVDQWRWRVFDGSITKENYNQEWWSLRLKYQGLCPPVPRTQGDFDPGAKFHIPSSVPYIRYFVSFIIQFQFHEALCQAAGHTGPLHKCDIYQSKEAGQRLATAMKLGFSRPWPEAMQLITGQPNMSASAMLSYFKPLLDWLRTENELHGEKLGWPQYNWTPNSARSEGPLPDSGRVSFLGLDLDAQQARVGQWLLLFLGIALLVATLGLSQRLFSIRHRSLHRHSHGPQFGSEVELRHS
# Method Notes: Enzymatic inhibition of peptidyldipeptidase A, Z-Phe-His-Leu as substrate
# Format: biochemical
# Experimental Conditions: Table IV
Property: IC50 (nM)
Dear colleague, please return just the value in nM, with no unit written.

Item CC(c1ccccc1)C(CSS)C(=O)N[C@@H](Cc1ccc(O)cc1)C(=O)O (some centres unmarked) [Example 88(A)] ; assay system UniProt P12821; IC50 reported as 3

Item CC(c1ccc(O)cc1)C(CS)C(=O)N[C@@H](C)C(=O)O (some centres unmarked) ; assay system UniProt P12821; IC50 reported as 6.2

Item CC(c1ccccc1)C(CS)C(=O)N[C@@H](C)C(=O)O (some centres unmarked) ; assay system UniProt P12821; IC50 reported as 2.8

Item CC(=O)SC(C(=O)N[C@@H](Cc1ccc(O)cc1)C(=O)O)C(C)c1ccc(F)cc1 (some centres unmarked) ; assay system UniProt P12821; IC50 reported as 5.9

Item CCCC[C@H](NC(=O)C(CS)C(C)c1ccccc1)C(=O)O (some centres unmarked) ; assay system UniProt P12821; IC50 reported as 5.8

----------
# IC50 listing for each entry below
# Target Of Assay: neutral endopeptidase (NEP) (Homo sapiens)
# Sequence (P08473 whole entry, species assumed): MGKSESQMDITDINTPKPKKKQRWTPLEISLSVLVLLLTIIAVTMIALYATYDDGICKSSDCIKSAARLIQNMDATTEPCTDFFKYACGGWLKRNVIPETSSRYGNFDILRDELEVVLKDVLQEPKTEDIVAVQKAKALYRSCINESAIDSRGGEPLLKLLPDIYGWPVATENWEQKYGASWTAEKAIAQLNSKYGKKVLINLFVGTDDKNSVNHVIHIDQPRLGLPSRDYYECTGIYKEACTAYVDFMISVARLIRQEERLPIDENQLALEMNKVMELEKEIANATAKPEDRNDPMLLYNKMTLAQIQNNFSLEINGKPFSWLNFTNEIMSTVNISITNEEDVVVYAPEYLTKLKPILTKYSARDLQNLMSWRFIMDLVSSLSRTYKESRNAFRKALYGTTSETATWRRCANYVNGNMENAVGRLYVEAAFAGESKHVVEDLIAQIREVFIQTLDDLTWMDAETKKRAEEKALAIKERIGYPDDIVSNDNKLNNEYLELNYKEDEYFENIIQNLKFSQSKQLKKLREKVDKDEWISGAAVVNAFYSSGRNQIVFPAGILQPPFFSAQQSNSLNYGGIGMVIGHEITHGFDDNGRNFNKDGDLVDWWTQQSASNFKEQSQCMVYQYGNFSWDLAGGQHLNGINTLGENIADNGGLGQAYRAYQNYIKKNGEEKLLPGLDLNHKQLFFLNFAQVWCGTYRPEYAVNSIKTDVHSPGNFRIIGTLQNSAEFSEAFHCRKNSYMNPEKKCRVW
# Method Notes: Enzymatic inhibition of neutral endopeptidase, [3H]D-Ala2-Leu-enkephalin as substrate
# Assay type: biochemical
# Experimental Conditions: Table IV
Dear colleague, please return just the value in nM, with no unit written.

CC(c1ccccc1)C(CS)C(=O)N[C@@H](C)C(=O)O (stereo partly shown) [Example 67] : 2
C[C@H](NC(=O)C(CS)C1CCc2ccccc21)C(=O)O (stereo partly shown) [Example 71] : 1.3
CC(=O)SCC(C(=O)N[C@@H](C)C(=O)O)C(C)c1ccc(F)cc1 (stereo partly shown) [Example 78] : 1.9

Per the records, this compound ( CC(c1ccccc1)C(CSS)C(=O)N[C@@H](Cc1ccc(O)cc1)C(=O)O (stereo partly shown) [Example 88(A)] ) has IC50 equal to 1

Per the records, this compound ( CC(c1ccccc1)C(CS)C(=O)N[C@@H](COCc1ccccc1)C(=O)O (stereo partly shown) [Example 65] ) has IC50 equal to 4

Per the records, this compound ( CC(c1ccc(F)c(F)c1)C(CS)C(=O)N[C@@H](Cc1ccc(O)cc1)C(=O)O (stereo partly shown) [Example 84] ) has IC50 equal to 6.3

Per the records, this compound ( CC(c1ccccc1)C(CSS)C(=O)N[C@@H](Cc1ccc(O)cc1)C(=O)O (stereo partly shown) [88(B)] ) has IC50 equal to 3.1

----------
# Target Of Assay: UniProt:P08473
# Method Notes: Enzymatic inhibition of neutral endopeptidase, [3H]D-Ala2-Leu-enkephalin as substrate
# Format: biochemical
# Experimental Conditions: Table III
Property: IC50 (nM)
Dear colleague, please return just the value in nM, with no unit written.

Per the records, this molecule ( CC[C@H](C)[C@H](NC(=O)C(S)Cc1ccccc1)C(=O)N[C@@H](Cc1ccc(O)cc1)C(=O)OC (stereo partly shown) ) has IC50 equal to 3.2

Per the records, this molecule ( CCC(C)C(NC(=O)C(S)Cc1ccccc1)C(=O)N1CCCCC1C(=O)O (stereo not shown) ) has IC50 equal to 5

Per the records, this molecule ( CCC(C)C(S)C(=O)N[C@@H](Cc1ccccc1)C(=O)N[C@@H](Cc1ccc(O)cc1)C(=O)O (stereo partly shown) ) has IC50 equal to 3

Per the records, this molecule ( CCC(C)C(S)C(=O)NC(C(=O)N[C@@H](Cc1ccc(O)cc1)C(=O)O)C(C)C (stereo partly shown) ) has IC50 equal to 5

Per the records, this molecule ( CC(C)C(NC(=O)C(S)CCc1ccccc1)C(=O)N[C@@H](Cc1ccc(O)cc1)C(=O)O (stereo partly shown) ) has IC50 equal to 10

Per the records, this molecule ( CCCC[C@H](NC(=O)C(S)Cc1ccccc1)C(=O)N[C@@H](Cc1ccc(O)cc1)C(=O)O (stereo partly shown) ) has IC50 equal to 18

Per the records, this molecule ( CC(C)[C@H](NC(=O)C(S)Cc1ccccc1)C(=O)N[C@@H](Cc1ccc(O)cc1)C(=O)O (stereo partly shown) ) has IC50 equal to 5

Recorded values, source patent US5591891A.
